B1: AUP1 (parent)
chain: EGLLRFSSWPFSIQDVVQPLTLQV

variants of: B1; experiment: protein stability index of a GFP-peptide fusion (GPS, HEK-293T) (PSI 1-6); higher = more stable; conditions: c terminus: a fixed tail appended;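 further: lentivirally expressed fusions sorted by FACS into six bins by GFP to DsRed ratio, PSI derived from sequencing read proportions per bin multiplied by bin number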
Quick rule: protein stability index of at least 2 means y, below that means n.

Some solved cases for reference:
Alteration: I13D
Assigned category: n
//
Alteration: V17E
Assigned category: n
//
Alteration: F6H
Assigned category: n

# input for lookup
Query string: Can F6S be said to have protein stability index at or above 2?
Result string: n
